Would you kindly list IC50 for each of these compounds?
- Target system: KDM5A (Homo sapiens, UniProt P29375)
- Construct: Full length KDM5A enzyme was expressed and purified inhouse; made in house
- Sequence (P29375 whole entry): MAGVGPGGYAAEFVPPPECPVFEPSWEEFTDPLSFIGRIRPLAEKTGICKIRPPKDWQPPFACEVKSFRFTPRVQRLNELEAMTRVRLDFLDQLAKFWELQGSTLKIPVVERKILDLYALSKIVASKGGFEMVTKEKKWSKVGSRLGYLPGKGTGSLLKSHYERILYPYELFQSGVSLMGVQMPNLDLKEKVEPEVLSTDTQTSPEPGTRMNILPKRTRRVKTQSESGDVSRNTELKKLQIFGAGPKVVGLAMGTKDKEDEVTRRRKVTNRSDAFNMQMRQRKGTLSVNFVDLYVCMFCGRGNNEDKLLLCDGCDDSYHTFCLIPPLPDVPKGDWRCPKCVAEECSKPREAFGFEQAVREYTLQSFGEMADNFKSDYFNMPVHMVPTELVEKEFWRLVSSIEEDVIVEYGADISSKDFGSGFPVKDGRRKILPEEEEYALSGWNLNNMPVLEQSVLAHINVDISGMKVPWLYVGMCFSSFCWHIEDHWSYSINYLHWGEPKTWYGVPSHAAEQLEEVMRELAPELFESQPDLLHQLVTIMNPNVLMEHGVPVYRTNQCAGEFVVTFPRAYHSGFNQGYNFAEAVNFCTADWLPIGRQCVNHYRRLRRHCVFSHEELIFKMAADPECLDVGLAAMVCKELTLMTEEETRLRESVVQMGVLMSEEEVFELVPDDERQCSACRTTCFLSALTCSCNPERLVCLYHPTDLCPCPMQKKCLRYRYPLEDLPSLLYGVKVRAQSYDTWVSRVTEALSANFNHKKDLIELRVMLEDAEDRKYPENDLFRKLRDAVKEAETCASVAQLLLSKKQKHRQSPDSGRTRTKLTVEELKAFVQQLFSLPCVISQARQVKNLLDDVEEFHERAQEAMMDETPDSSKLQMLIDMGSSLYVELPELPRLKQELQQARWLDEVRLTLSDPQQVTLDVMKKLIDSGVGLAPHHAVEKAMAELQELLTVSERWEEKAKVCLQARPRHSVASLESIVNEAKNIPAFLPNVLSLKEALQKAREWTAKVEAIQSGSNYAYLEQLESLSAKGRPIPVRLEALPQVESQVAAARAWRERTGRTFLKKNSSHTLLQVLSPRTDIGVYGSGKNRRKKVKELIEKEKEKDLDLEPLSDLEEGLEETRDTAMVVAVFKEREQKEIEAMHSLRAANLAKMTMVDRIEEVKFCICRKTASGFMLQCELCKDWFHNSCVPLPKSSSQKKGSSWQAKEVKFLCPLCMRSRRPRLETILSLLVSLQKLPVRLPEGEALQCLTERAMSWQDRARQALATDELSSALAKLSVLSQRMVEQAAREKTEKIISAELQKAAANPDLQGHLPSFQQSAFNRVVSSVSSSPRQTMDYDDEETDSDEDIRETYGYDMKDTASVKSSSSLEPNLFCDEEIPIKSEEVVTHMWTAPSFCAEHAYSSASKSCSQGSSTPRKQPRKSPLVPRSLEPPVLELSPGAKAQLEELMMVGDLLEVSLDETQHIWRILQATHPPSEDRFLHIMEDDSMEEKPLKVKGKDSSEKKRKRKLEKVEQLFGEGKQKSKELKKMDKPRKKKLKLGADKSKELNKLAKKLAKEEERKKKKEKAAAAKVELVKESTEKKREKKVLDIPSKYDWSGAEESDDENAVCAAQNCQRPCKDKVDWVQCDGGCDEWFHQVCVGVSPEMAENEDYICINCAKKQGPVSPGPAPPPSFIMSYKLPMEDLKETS
- Experiment: KDM5 enzyme assay, KDM5A HTRF (Example 463)
- Type: biochemical
- Condition details: compounds of Examples 1-432; read-out: Example 463 Assay KDM5A HTRF IC50
Give a bare numeral; the unit nM is implied.

Input: Fill in: IC50 of CC(C)c1c(-c2cnn(C3COC3)c2)[nH]c2c(C#N)cnn2c1=O is ___
Output: 17

Input: State the recorded IC50 for this entry: CC(C)c1c(-c2cnn(Cc3cccc(-c4ccccc4)c3)c2)[nH]c2c(C#N)cnn2c1=O
Output: 6

Input: Value lookup for IC50; key = CC(C)c1c(-c2ccc(C(N)=O)c(F)c2)[nH]c2c(C#N)cnn2c1=O
Output: 23

Input: Requested read-out: IC50. Entry: CC(C)c1c(-c2cnn(Cc3cncs3)c2)[nH]c2c(C#N)cnn2c1=O
Output: 11

Input: Record request: IC50 value, item CC(C)c1c(-c2cccc(OCCc3ccccc3)c2)[nH]c2c(C#N)cnn2c1=O
Output: 46

Input: Please look up its IC50: CC(C)c1c(Cl)[nH]c2c(C#N)cnn2c1=O
Output: 4.3

Input: Requested field: IC50. Item: CCNC(=O)c1cccc(-c2[nH]c3c(C#N)cnn3c(=O)c2C(C)C)c1
Output: 32

Input: Any idea what IC50 was measured for N#Cc1cnn2c(=O)cc(-c3cc(N)cc(-c4ccccc4)c3)[nH]c12 ?
Output: 83

Input: For the compound shown here, CC(C)c1c(-c2ccc(C3CC3)cc2)[nH]c2c(C#N)cnn2c1=O , give the reported IC50.
Output: 27

Input: // lookup IC50 for CC(C)c1c(-c2ccnn2CCC2CC2)[nH]c2c(C#N)cnn2c1=O
Output: 88

Input: What value of IC50 has been recorded for this entry: CCc1c(C)n(CCOC)c2c(C#N)cnn2c1=O
Output: 2300

Input: So what's the measured IC50 for this one? CC(C)c1c(-c2cccc(CO)c2)[nH]c2c(C#N)cnn2c1=O
Output: 25

Input: Any idea what its IC50 is? The compound is CC(C)c1c(-c2cnn(CC3CC3)c2)[nH]c2c(C#N)cnn2c1=O
Output: 13

Input: Recorded IC50 of CC(C)c1c(-c2cn[nH]c2)[nH]c2c(C#N)cnn2c1=O , please.
Output: 5.5

Input: Endpoint output: IC50 of CC(C)c1c(-c2cn[nH]c2)n(C)c2c(C#N)cnn2c1=O . Value?
Output: 49

Input: Can you share its IC50? I mean this compound: COc1cc(-c2[nH]c3c(C#N)cnn3c(=O)c2C(C)C)ccc1C
Output: 12

Input: Return reported IC50; argument: CC(C)c1c(-c2cnn(Cc3ccccc3)c2)n(C)c2c(C#N)cnn2c1=O
Output: 60

Input: Look up IC50: CC(C)c1c(-c2cnn(C3CCCC3O)c2)[nH]c2c(C#N)cnn2c1=O (stereo not drawn)
Output: 24

Input: Would you kindly share the measured IC50 for CC(C)c1c(-c2ccc(CN3CCOCC3)cc2)[nH]c2c(C#N)cnn2c1=O ?
Output: 19

Input: Any idea what its IC50 is? The compound is CC(C)c1c(-c2cnn(Cc3cccs3)c2)[nH]c2c(C#N)cnn2c1=O
Output: 9.8

Input: Quick one: IC50 for N#Cc1cnn2c(=O)c(CC(F)F)c(-c3ccccc3)[nH]c12 ?
Output: 9.3

Input: Entry CC(C)c1c(-c2cnn([C@H]3CC[C@H](O)C3)c2)[nH]c2c(C#N)cnn2c1=O has what IC50?
Output: 48

Input: State the recorded IC50 for this entry: CCS(=O)(=O)c1cccc(-c2[nH]c3c(C#N)cnn3c(=O)c2C(C)C)c1
Output: 48

Input: Report IC50 for CNC(=O)c1ccc(-c2[nH]c3c(C#N)cnn3c(=O)c2C(C)C)cc1F please.
Output: 85

Input: Fill blank: measured IC50 of the compound CCc1ccc(-c2[nH]c3c(C#N)cnn3c(=O)c2C(C)C)o1 is ____.
Output: 7.2

Input: For CCc1c(-c2ccc(-c3ccccc3)cc2)[nH]c2c(C#N)cnn2c1=O , what is its reported IC50?
Output: 9

Input: Fill blank: measured IC50 of the compound CC(C)c1c(-c2ccc(C(=O)N3CCCC3)cc2)[nH]c2c(C#N)cnn2c1=O is ____.
Output: 93

Input: Entry CC(C)c1c(-c2ccnc(C(F)(F)F)c2)[nH]c2c(C#N)cnn2c1=O : reported IC50 = ?
Output: 34

Input: Reported IC50, compound Cc1cc(-c2[nH]c3c(C#N)cnn3c(=O)c2C(C)C)ccc1OC(F)(F)F : ____
Output: 44

Input: May I ask what IC50 has been recorded for CC(=O)Nc1cccc(-c2[nH]c3c(C#N)cnn3c(=O)c2C(C)C)c1 ?
Output: 38

Input: Reported IC50, compound N#Cc1cnn2c(=O)c(I)c(-c3ccccc3)[nH]c12 : ____
Output: 15

Input: // IC50 lookup, key: CCc1c(C(N)=O)[nH]c2c(C#N)cnn2c1=O
Output: 29

Input: IC50 for CCc1c(-c2cnn(Cc3ccccc3)c2)n(C)c2c(C#N)cnn2c1=O ?
Output: 130

Input: Reported IC50, compound CC(C)c1c(-c2ccc(F)cc2)[nH]c2c(C#N)cnn2c1=O : ____
Output: 7.8

Input: Returns the measured IC50 for the input compound. Input: CCC(C)c1c(-c2ccccc2)[nH]c2c(C#N)cnn2c1=O (stereo not drawn)
Output: 18

Input: Reported IC50, compound CC(C)c1c(-c2ccoc2)n(C)c2c(C#N)cnn2c1=O : ____
Output: 65
